Target or system IRAK4 (Homo sapiens (Human), UniProt Q9NWZ3); metric log10 IC50; compiled from varied reports.
Please keep in mind that the values are log10 of IC50 expressed in nM.

molecule | value
COC(=O)c1ccccc1-n1cc(-c2cnc(-n3ncc4cc(C#N)cnc43)cc2NC(C)C)nn1 | 1.54
CC(C)(O)[C@H](F)CNC(=O)c1cnc(-c2cnc3cc(C#N)cnn23)cc1NCCC(F)F | 0.30
NC(=O)[C@@H]1[C@H](Nc2nc(Nc3cccc(C(=O)N4CCCC4)c3)ncc2-c2cccc(F)c2)[C@H]2C=C[C@@H]1C2 | 0.78
CC(C)Nc1cc(-n2cnc3cc(C#N)cnc32)ncc1-c1cn(CC(O)Cc2ccccc2)nn1 (single isomer, unassigned) | 1.63

Return log10 IC50 measured with IRAK4 (Homo sapiens (Human), UniProt Q9NWZ3) given this molecule: CC(C)Oc1nc2nc(C34CCC(C)(CC3)OC4)cn2cc1C(=O)Nc1cccn(C2CC2)c1=O
-0.52

Return log10 IC50 measured with IRAK4 (Homo sapiens (Human), UniProt Q9NWZ3) given this molecule: CC[C@H](C)Oc1nc2nc(C34COC(C)(C3)C4)cn2cc1C(=O)Nc1cccn([C@H]2C[C@H]2F)c1=O (single isomer, unassigned)
-0.70

###

Target or system IRAK4 (Homo sapiens (Human)); metric pIC50; compiled from varied reports.
// pIC50 here means minus log10 of the molar concentration (mol/L)

Below are worked cases with known answers.
compound | targetUnderTest | value
CCCc1cn(-c2cnc(-c3cnn4cc(Cl)cnc34)cc2NC(C)C)nn1 | IRAK4 (Homo sapiens (Human)) | 8.10
CC(C)C(O)[C@H](F)CNC(=O)c1cnc(Nc2ccc3ncsc3c2)cc1NC1CC1 (stereo partly shown) | IRAK4 (Homo sapiens (Human)) | 8.46
CC(C)Nc1c(C(=O)NCCN2CCS(=O)(=O)CC2)cnc2sc(-c3ccc(=O)[nH]c3)cc12 | IRAK4 (Homo sapiens (Human)) | 7.62
CC(C)Nc1cc(-n2ncc3cc(C#N)cnc32)ncc1-n1cc(CCN)nn1 | IRAK4 (Homo sapiens (Human)) | 7.59
CC(C)Nc1cc(-n2ncc3cc(C#N)cnc32)ncc1-n1cc(C2CCCC2)nn1 | IRAK4 (Homo sapiens (Human)) | 7.85
COCc1nnc([C@H]2CC[C@H](Nc3cc(-c4ccc5cc(C#N)cnn45)ncc3C(=O)NC[C@@H](F)C(C)(C)O)CC2)o1 | IRAK4 (Homo sapiens (Human)) | 9.00

Continue with the compound presented below.
Could you tell me which pIC50 is on file for CCOC(=O)Cn1cc(-c2cnc(-n3ccc4cncnc43)cc2NC(C)C)nn1 ?
9.00

###

Target or system IRAK4 (Homo sapiens (Human), UniProt Q9NWZ3); metric pIC50; compiled from varied reports.
// pIC50 here means minus log10 of the molar concentration (mol/L)

Below are worked cases with known answers.
molecule | readoutName | value
CC(C)Nc1cc(-n2ncc3cc(C#N)cnc32)ncc1-c1cnn(C2CC2)c1 | pIC50 | 6.82
NC(=O)[C@@H]1[C@H](Nc2nc(Nc3cccc(C(=O)N4CCCC4)c3)ncc2-c2cccnc2)[C@H]2C=C[C@@H]1C2 | pIC50 | 8.00

Continue with the molecule presented below.
Return pIC50 measured with IRAK4 (Homo sapiens (Human), UniProt Q9NWZ3) given this molecule: CC(=O)N1CCCN(C2CCC(Nc3nc(Nc4cnn(C5CCOCC5)c4)nc4snc(C)c34)CC2)CC1 (stereo not shown)
8.89

###

Target or system IRAK4 (Homo sapiens (Human), UniProt Q9NWZ3); metric IC50; compiled from varied reports.
Give a bare numeral; the unit µM is implied.

compound | IC50 [µM]
CC(C)(O)[C@H](F)CNC(=O)c1cnc(-c2cnc3cc(C#N)cnn23)cc1Nc1cc2n(n1)CCN(CC(F)F)C2 | 0.006
CN(C)C1CCC(Nc2ncnc3ccc(C4CC4)cc23)CC1 (stereo not shown) | 0.012
CC(C)Nc1c(-c2cc(C3CCNCC3)no2)cnc2c1[nH]c1cc(C#N)ccc12 | 0.0023
COCCOc1cncc(-c2ccc3ncnc(N[C@H]4CC[C@H](N(C)C)CC4)c3c2)c1 | 0.083

Could you tell me which IC50 is on file for CC(C)(O)[C@H](F)CNC(=O)c1cnc(-c2cnn3cc(C#N)cnc23)cc1NC1CCCC1O (stereo partly shown) ?
0.044

###

Target or system IRAK4 (Homo sapiens (Human)); metric pIC50; compiled from varied reports.
// pIC50 here means minus log10 of the molar concentration (mol/L)

compound | value
Oc1cncc(-c2cc3c(N[C@H]4CC[C@H](N5CCOCC5)CC4)ncnc3cc2F)c1 | 9.00
CC(C)(O)[C@H](F)CNC(=O)c1cnc2sc(-c3cccnc3)nc2c1NC1CCOCC1 | 7.40
CC(C)Nc1cc(-n2ncc3cc(C#N)cnc32)ncc1-c1cc(C2CCCCN2)no1 (stereo not drawn) | 8.40
COc1cc2nn(C3CCOCC3)cc2cc1NC(=O)c1cccc(C(F)F)n1 | 9.00
Cc1onc(-c2ccccc2)c1-c1ccc2ncnc(N[C@H]3CC[C@H](N(C)C)CC3)c2c1 | 6.16

Return pIC50 measured with IRAK4 (Homo sapiens (Human)) given this compound: Cc1nsc2nc(Nc3cnn(C4CCOCC4)c3)nc(N[C@H]3CC[C@H](N4CCC(N(C)C)CC4)CC3)c12
8.68

Return pIC50 measured with IRAK4 (Homo sapiens (Human)) given this compound: CCCc1cn(-c2cnc(-c3cnc4cc(C#N)cnn34)cc2NC(C)C)nn1
8.22

###

Target or system IRAK4 (Homo sapiens (Human), UniProt Q9NWZ3); metric IC50; compiled from varied reports.
Lab note: compare IC50 with 9 nM, writing Y if less and N if equal or more.

lineNotation | assignedCategory
COC(=O)N1CCN([C@H]2CC[C@H](Nc3nc(Nc4cnn([C@@H]5CCOC5)c4)nc4snc(C)c34)CC2)CC1 | N
Cc1n[nH]cc1-c1ccc2ncnc(N[C@H]3CC[C@H](N4CCOCC4)CC3)c2c1 | N
CC(C)Nc1cc(Nc2ccc3ncsc3c2)ncc1C(=O)NCC[C@@H](C)NC(=O)Cn1ccnn1 | Y

Bench note: check whether CC(C)(F)Cn1cc(Nc2cc(-c3cnc4cc(C#N)cnn34)ncc2C(=O)NC[C@@H](F)C(C)(C)O)cn1 shows IC50 below 9 nM
Y

###

Target or system UniProt:Q9NWZ3; metric IC50; compiled from varied reports.
Give a bare numeral; the unit nM is implied.

lineNotation | IC50 (nM)
Cc1nc(Nc2ccccn2)nc(N[C@@H]2C[C@H](CO)[C@@H](O)[C@H]2O)c1-c1nc2ccccc2s1 | 11300
CS(=O)(=O)N1CCC(n2cc(-c3ccc4[nH]c5ncnc(N[C@H]6CC[C@H](N7CCOCC7)CC6)c5c4c3)cn2)CC1 | 50
CC(C)(O)CCc1cn2cc(NC(=O)c3cccc(C(F)(F)F)n3)c(N3CCOCC3)cc2n1 | 2.2

Continue with the molecule presented below.
Return IC50 measured with UniProt:Q9NWZ3 given this molecule: CC(C)(O)c1cc2nn([C@H]3CC[C@H](O)CC3)cc2cc1NC(=O)c1cccc(C(F)(F)F)n1
2.4

###

Target or system UniProt:Q9NWZ3; metric IC50; compiled from varied reports.
Lab note: compare IC50 with 6 nM, writing 1 if less and -1 if equal or more.

Reference set (5 entries):
molecule | targetUnderTest | assignedCategory
CC(C)(O)C(=O)N1CCC(N2CC(n3cc(NC(=O)c4cccc(-c5cc[nH]n5)n4)c(C(F)F)n3)C2)CC1 | UniProt:Q9NWZ3 | 1
CC(C)(C#N)n1cc(-c2cccc(C(=O)Nc3cn(C4CN(C5CCN(C(=O)CO)CC5)C4)nc3C(F)F)n2)cn1 | UniProt:Q9NWZ3 | 1
CNC(=O)[C@H]1CC[C@H](NC(=O)c2cnc(Nc3ccc4ncsc4c3)cc2NCC(F)(F)F)CC1 | UniProt:Q9NWZ3 | -1
CN(C)[C@H]1CC[C@H](Nc2ncnc3ccc(-c4ccc(O)nc4)cc23)CC1 | UniProt:Q9NWZ3 | -1
CC(C)Nc1cc(-n2ncc3cc(C#N)cnc32)ncc1-n1cc(CNC(N)=O)nn1 | UniProt:Q9NWZ3 | -1

Bench note: check whether CC(=O)N[C@H]1CC[C@H](NC(=O)c2cnc(Nc3ccc4ncsc4c3)cc2N[C@H]2CCOC[C@@H]2F)CC1 shows IC50 below 6 nM
1

Bench note: check whether CNC(=O)[C@H]1CC[C@H](NC(=O)c2cnc(Nc3ccc4ncsc4c3)cc2NC(C)C)C1 shows IC50 below 6 nM
-1

Bench note: check whether C[C@@H](CF)Oc1cc2nc(C34CCC(C)(C3)OC4)cn2cc1C(=O)Nc1cccn(C2CC2)c1=O (mixture of isomers) shows IC50 below 6 nM
1

Bench note: check whether CC(C)(O)c1c[nH]c(=O)c2cc3ccnc(OC[C@@H]4CCC(=O)N4)c3cc12 shows IC50 below 6 nM
-1

Bench note: check whether CS(=O)(=O)N1CCC(N2CC(n3cc(NC(=O)c4cccc(-c5cnn(CC(F)F)c5)n4)c(C(F)F)n3)C2)CC1 shows IC50 below 6 nM
1

Bench note: check whether CC(C)(O)[C@H](F)CNC(=O)c1cnn2cc(-c3ccccc3)cc2c1NC1CCCC1 shows IC50 below 6 nM
-1

Bench note: check whether CC(C)(F)CNc1cc(Nc2ccn3nccc3n2)ncc1C(=O)NC[C@@H](F)C(C)(C)O shows IC50 below 6 nM
1
